Data origin, for the record: patent US10815274B2

Cytotoxic CTL response, % vs WT1- allo APC with restricting HLA allele by entry:
- Tested on: WT1- allo APC with restricting HLA allele
- EXPERIMENT_NOTES: Cr51 release assay, cytotoxic CTL response vs unloaded allogeneic APC sharing restricting HLA allele
- Assay type: cell-based, human
- CONDITION_NOTES: HLA allele A0101; 50:1 E:T
Where a SMILES comes first, the peptide text is derived from it.
Only the number, expressed in %, is required.

CC(C)[C@H](NC(=O)[C@@H](NC(=O)[C@H](CO)NC(=O)[C@H](Cc1ccc(O)cc1)NC(=O)CNC(=O)[C@H](CCC(N)=O)NC(=O)[C@@H](N)CC(N)=O)[C@@H](C)O)C(=O)N[C@H](C(=O)N[C@@H](Cc1ccccc1)C(=O)O)[C@@H](C)O [SEQ ID NO: 163] (H-NQGYSTVTF-OH; N-terminus and C-terminus assumed) ... 4
CSCC[C@H](NC(=O)[C@H](CCC(N)=O)NC(=O)[C@H](CC(N)=O)NC(=O)[C@@H](N)Cc1c[nH]c2ccccc12)C(=O)N[C@@H](CC(N)=O)C(=O)N[C@@H](CC(C)C)C(=O)NCC(=O)N[C@@H](C)C(=O)N[C@H](C(=O)O)[C@@H](C)O [SEQ ID NO: 171] (H-WNQMNLGAT-OH; N-terminus and C-terminus assumed) ... 3
CC(C)C[C@H](NC(=O)[C@@H](NC(=O)[C@H](C)NC(=O)CNC(=O)[C@H](CC(C)C)NC(=O)[C@@H](N)CC(N)=O)[C@@H](C)O)C(=O)N[C@@H](CCCCN)C(=O)NCC(=O)N[C@H](C(=O)O)C(C)C [SEQ ID NO: 175] (H-NLGATLKGV-OH; N-terminus and C-terminus assumed) ... 1
C[C@@H](O)[C@H](NC(=O)[C@@H](NC(=O)[C@H](Cc1c[nH]cn1)NC(=O)[C@H](CC(N)=O)NC(=O)[C@H](CC(=O)O)NC(=O)[C@H](CO)NC(=O)[C@H](CCC(=O)O)NC(=O)[C@H](Cc1ccc(O)cc1)NC(=O)CN)[C@@H](C)O)C(=O)O [SEQ ID NO: 178] (H-GYESDNHTT-OH; N-terminus and C-terminus assumed) ... 0

Query compound follows.
Prompt: So what's the measured Cytotoxic CTL response, % vs WT1- allo APC with restricting HLA allele for this one? CC(C)C[C@H](NC(=O)[C@H](CC(C)C)NC(=O)[C@H](CC(C)C)NC(=O)[C@H](C)NC(=O)[C@H](CCC(N)=O)NC(=O)[C@H](CO)NC(=O)CNC(=O)[C@@H](NC(=O)[C@@H](N)CS)[C@@H](C)O)C(=O)O [SEQ ID NO: 167] (H-CTGSQALLL-OH; N-terminus and C-terminus assumed)
Response: 0

====

- System: WT1 peptide loaded autologous APC
- EXPERIMENT_NOTES: Cr51 release assay, cytotoxic CTL response vs peptide loaded autologous APC
- Format: cell-based, human
- CONDITION_NOTES: HLA allele B3501; 50:1 E:T
Where a SMILES comes first, the peptide text is derived from it.
REPORTED_METRIC: Cytotoxic CTL response, % vs WT1 peptide loaded autologous APC (%)
Kindly answer with a numeric value in %, unit omitted.

Please review the entries below; each comes with its answer.
CSCC[C@H](NC(=O)[C@H](CCC(N)=O)NC(=O)[C@H](CCC(N)=O)NC(=O)[C@@H]1CCCN1C(=O)[C@H](CCC(=O)O)NC(=O)[C@H](CO)NC(=O)CNC(=O)[C@H](CO)NC(=O)[C@H](C)N)C(=O)O [SEQ ID NO: 151] (H-ASGSEPQQM-OH; N-terminus and C-terminus assumed) ... 73
CSCC[C@H](NC(=O)[C@@H]1CCCN1C(=O)[C@H](CC(=O)O)NC(=O)[C@H](CCC(=O)O)NC(=O)[C@H](Cc1c[nH]cn1)NC(=O)[C@H](CCCCN)NC(=O)[C@H](Cc1ccccc1)NC(=O)[C@H](CO)NC(=O)[C@@H](N)Cc1c[nH]cn1)C(=O)O [SEQ ID NO: 165] (H-HSFKHEDPM-OH; N-terminus and C-terminus assumed) ... 50

Continue with the next molecule.
Prompt: Can you look up Cytotoxic CTL response, % vs WT1 peptide loaded autologous APC on WT1 peptide loaded autologous APC for CC(C)C[C@H](NC(=O)[C@H](CS)NC(=O)[C@H](CO)NC(=O)[C@@H]1CCCN1)C(=O)N[C@@H](CCC(=O)O)C(=O)N[C@@H](CO)C(=O)N[C@@H](CCC(N)=O)C(=O)N1CCC[C@H]1C(=O)N[C@@H](C)C(=O)O [SEQ ID NO: 162] (H-PSCLESQPA-OH; N-terminus and C-terminus assumed) ?
Response: 35
